- Assay: chemical genetic growth profiling, strain panel (AID 1159580);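 note: tested at 20 µM; growth read once vehicle control cultures reached saturation at 30 °C; 1 = growth at the plate median or of vehicle wells; lower values mean less growth of the strain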
- Protocol Conditions: S. cerevisiae deletion strains, growth OD, locus YNL067W, strain RPL9B, hits give low values
In all, about 5,500 compounds went through this assay and about 2,000 (36%) were called active. Not shown: some 18% with an inconclusive outcome. The list shows a part of the results.
Measure Name: normalized growth
Just the number.

COc1cc2c(cc1OC)Cc1cc(OC)c(OC)cc1Cc1cc(OC)c(OC)cc1C2
1.03
CCOC(=O)C(Cc1ccc(O)cc1)NC(C)=O (configuration not stated)
1.02
COC1=C(OC)C(=O)C(C/C=C(\C)CC/C=C(\C)CC/C=C(\C)CC/C=C(/C)CC/C=C(\C)CC/C=C(\C)CC/C=C(\C)CC/C=C(\C)CC/C=C(\C)CCC=C(C)C)=C(C)C1=O
0.995
CC(=O)OCC[N+](C)(C)C
0.961

Indicate its recorded normalized growth; the compound in question is "NCCSSCCN"
1.03

Query normalized growth for "CC(=O)N[C@@H](CC(C)C)C(=O)O"
1.03

Read off the recorded normalized growth for CC(=O)NC1SCCC1=O (configuration not stated)
0.987

Sourced from PubChem BioAssay AID1159580
